EC50 values for the compounds below.
target: IGF1R (Homo sapiens); experiment: Enzyme Fragment Complementation cell-based assay, IGF1R; details: cryopreserved HEK293-cells expressing IGFR1; ligand 10 ng/mL; 3 hours incubation
Sequence (P08069 31-736 limits assumed): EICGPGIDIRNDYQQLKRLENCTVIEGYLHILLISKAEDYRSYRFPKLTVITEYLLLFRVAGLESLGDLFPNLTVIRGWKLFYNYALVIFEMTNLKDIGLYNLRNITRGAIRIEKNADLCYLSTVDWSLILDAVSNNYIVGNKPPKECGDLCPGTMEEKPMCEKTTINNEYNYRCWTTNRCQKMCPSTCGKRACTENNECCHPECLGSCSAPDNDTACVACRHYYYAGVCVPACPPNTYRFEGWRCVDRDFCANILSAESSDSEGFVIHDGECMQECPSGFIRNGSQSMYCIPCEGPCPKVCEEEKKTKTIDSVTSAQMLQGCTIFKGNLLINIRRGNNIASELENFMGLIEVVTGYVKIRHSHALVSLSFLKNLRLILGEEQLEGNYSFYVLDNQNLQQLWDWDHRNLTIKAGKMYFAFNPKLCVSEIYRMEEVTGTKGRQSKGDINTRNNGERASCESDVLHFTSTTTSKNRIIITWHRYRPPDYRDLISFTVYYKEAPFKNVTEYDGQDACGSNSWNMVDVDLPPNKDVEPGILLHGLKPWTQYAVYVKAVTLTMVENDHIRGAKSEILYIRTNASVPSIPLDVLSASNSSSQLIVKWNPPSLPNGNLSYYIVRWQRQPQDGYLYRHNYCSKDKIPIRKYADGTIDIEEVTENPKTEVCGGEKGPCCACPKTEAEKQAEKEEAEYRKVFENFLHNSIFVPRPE
Sequence (P08069 741-1367 limits assumed): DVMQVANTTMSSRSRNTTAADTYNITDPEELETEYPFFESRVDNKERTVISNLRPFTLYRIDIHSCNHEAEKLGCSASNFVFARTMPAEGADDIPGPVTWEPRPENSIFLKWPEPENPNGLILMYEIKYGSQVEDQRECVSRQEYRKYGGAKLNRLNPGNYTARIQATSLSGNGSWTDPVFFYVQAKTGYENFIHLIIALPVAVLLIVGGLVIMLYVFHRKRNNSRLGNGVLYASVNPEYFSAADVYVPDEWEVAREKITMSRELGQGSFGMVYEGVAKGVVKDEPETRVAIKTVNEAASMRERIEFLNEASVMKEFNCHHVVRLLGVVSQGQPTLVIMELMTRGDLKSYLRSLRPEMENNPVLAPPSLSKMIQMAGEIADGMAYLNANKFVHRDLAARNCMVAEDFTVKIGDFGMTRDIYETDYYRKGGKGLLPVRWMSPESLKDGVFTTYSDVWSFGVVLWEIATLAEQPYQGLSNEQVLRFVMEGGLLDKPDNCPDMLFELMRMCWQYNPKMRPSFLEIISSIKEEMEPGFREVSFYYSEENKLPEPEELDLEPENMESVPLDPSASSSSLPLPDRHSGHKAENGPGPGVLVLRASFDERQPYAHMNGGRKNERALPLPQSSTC
Provide only the numeric value, understood in nM.

Example entries begin here.
Inquiry: # input compound: `COc1cccc(-n2c(=O)[nH]c(=O)n(-c3ccc(Oc4ccccc4)cc3)c2=O)c1` ; wanted: its EC50
Reply text: 840

Inquiry: I would be grateful if you could share the reported EC50 for `O=c1[nH]c(=O)n(-c2ccc(OCc3ccccc3)cc2)c(=O)n1-c1ccccc1` .
Reply text: 4400

Inquiry: GET /values?readout=EC50&item= `Cc1cc(-n2c(=O)[nH]c(=O)n(-c3ccccc3)c2=O)ccc1Oc1ccccc1`
Reply text: 250

Next:
Inquiry: Entry `COc1cc(-n2c(=O)[nH]c(=O)n(-c3ccccc3)c2=O)ccc1Oc1ccccc1` : reported EC50 = ?
Reply text: 220

----------
biological target: TrkB (Homo sapiens); assay: Enzyme Fragment Complementation cell-based assay, TrkB; details: U2OS-cells over-expressing TrkB; ligand 10 ng/mL; 3 hours incubation
Sequence (Q16620 32-822): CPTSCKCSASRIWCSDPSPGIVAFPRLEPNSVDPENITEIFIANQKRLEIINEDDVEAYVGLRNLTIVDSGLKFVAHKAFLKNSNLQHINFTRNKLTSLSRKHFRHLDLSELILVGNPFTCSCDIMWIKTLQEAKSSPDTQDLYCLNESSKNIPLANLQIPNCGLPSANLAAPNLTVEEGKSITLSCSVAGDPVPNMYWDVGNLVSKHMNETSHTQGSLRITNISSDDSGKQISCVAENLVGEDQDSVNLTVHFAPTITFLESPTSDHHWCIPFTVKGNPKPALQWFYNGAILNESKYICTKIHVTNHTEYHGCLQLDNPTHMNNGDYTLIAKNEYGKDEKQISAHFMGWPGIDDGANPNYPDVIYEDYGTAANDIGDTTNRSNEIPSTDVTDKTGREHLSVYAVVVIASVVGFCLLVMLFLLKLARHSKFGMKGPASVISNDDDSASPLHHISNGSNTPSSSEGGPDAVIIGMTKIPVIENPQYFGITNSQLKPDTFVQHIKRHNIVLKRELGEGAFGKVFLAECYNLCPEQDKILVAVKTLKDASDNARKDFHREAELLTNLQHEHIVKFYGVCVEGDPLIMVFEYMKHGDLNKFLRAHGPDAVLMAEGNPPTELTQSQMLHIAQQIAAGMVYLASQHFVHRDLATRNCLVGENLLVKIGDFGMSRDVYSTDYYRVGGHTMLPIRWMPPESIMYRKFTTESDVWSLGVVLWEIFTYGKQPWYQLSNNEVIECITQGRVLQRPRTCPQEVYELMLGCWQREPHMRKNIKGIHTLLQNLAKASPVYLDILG
pEC50 reference
# reply with the number alone; pEC50 is -log10 of concentration in mol/L

Inquiry: Entry `Cc1cc(-n2c(=O)[nH]c(=O)n(-c3ccccn3)c2=O)ccc1Oc1ccccc1` , system TrkB (Homo sapiens): what pEC50 was measured?
Reply text: 6.85

Inquiry: Lab request: please report pEC50 under test system TrkB (Homo sapiens) for `Cc1cc(-n2c(=O)[nH]c(=O)n(-c3ccc4[nH]ccc4c3)c2=O)ccc1Oc1ccccc1`
Reply text: 6.57

Inquiry: State its pEC50 on TrkB (Homo sapiens): `CN(C)C(=O)Cc1cc(-n2c(=O)[nH]c(=O)n(-c3ccccc3)c2=O)ccc1Oc1ccccc1`
Reply text: 5.34

Inquiry: Hi! What's the reported pEC50 for `O=c1[nH]c(=O)n(-c2ccc(Oc3ccccc3)c(CO)c2)c(=O)n1-c1ccccc1` on TrkB (Homo sapiens)?
Reply text: 5.74

Inquiry: Could you share what pEC50 was measured for `COc1ccccc1-n1c(=O)[nH]c(=O)n(-c2ccc(Oc3ccccc3)c(C)c2)c1=O` , tested on TrkB (Homo sapiens)?
Reply text: 6.59

Inquiry: Checklist item: pEC50 tested on TrkB (Homo sapiens), entry `Cc1cc(-n2c(=O)[nH]c(=O)n(-c3cccc4ccoc34)c2=O)ccc1Oc1ccccc1` , value?
Reply text: 7.00

Continuing:
Inquiry: Please provide the recorded pEC50 for `Cc1cc(-n2c(=O)[nH]c(=O)n(-c3cccc4[nH]ccc34)c2=O)ccc1Oc1ccccc1` , tested on TrkB (Homo sapiens).
Reply text: 6.10

Inquiry: Query the reported pEC50 for TrkB (Homo sapiens); item: `COc1c(-n2c(=O)[nH]c(=O)n(-c3ccccc3)c2=O)ccc(Oc2ccccc2)c1C`
Reply text: 7.00

Inquiry: Form entry - test system: TrkB (Homo sapiens); read-out: pEC50; compound: `Cc1cc(-n2c(=O)[nH]c(=O)n(-c3cccc(OC(F)(F)F)c3)c2=O)ccc1Oc1ccccc1`
Reply text: 6.59

Inquiry: Please provide the recorded pEC50 for `Cc1cc(-n2c(=O)[nH]c(=O)n(C)c2=O)ccc1Oc1ccccc1` , tested on TrkB (Homo sapiens).
Reply text: 5.85

Inquiry: Recall the recorded pEC50 for `O=c1[nH]c(=O)n(-c2ccc(Nc3ccccc3)cc2)c(=O)n1-c1ccccc1` with TrkB (Homo sapiens) and state it.
Reply text: 5.05

Inquiry: API: value(readout=pEC50, system=TrkB (Homo sapiens)) for record `COCCOc1cc(-n2c(=O)[nH]c(=O)n(-c3ccc(C)s3)c2=O)ccc1Oc1ccccc1`
Reply text: 6.43

Inquiry: Find pEC50 (TrkB (Homo sapiens)) for the entry `COc1cc(Oc2ccccc2)ccc1-n1c(=O)[nH]c(=O)n(-c2ccccc2)c1=O`
Reply text: 6.57

Inquiry: Identify the measured pEC50 of `Cn1c(=O)[nH]c(=O)n(-c2ccc(Oc3ccccc3)c(Cl)c2)c1=O` for TrkB (Homo sapiens).
Reply text: 5.80
